# Test system: SNU-16
# ASSAY EXPLANATION: Anti-proliferative activity against human SNU-16 cells
# Format: functional, cell-based
ASSAY ENDPOINT: pIC50
Entry type: numeric. Quantity: pIC50, the -log10 of concentration in molar units.

Exercise: I have this compound here, CNC(=O)c1cc(Oc2ccc(NC(=O)Nc3ccc(Cl)c(C(F)(F)F)c3)cc2)ccn1 [SORAFENIB] , and I need its recorded pIC50.
Solution: 6.02

----------
# System: HCT-116
# ASSAY EXPLANATION: cells
# DETAILS: Homo sapiens
# Description: Anti-proliferative activity against human HCT-116 cells
ASSAY ENDPOINT: IC50 (µM)
# number only, unit µM dropped from output

Exercise: What value of IC50 has been reported for the following compound? `CNC(=O)c1cc(Oc2ccc(NC(=O)Nc3ccc(Cl)c(C(F)(F)F)c3)cc2)ccn1`
Solution: 4.43

Exercise: Return reported IC50; argument: COc1cc2nccc(Oc3ccc(NC(=O)C4(C(=O)Nc5ccc(F)cc5)CC4)cc3)c2cc1OC [CABOZANTINIB]
Solution: 7.26
